Taken from patent US12195457B2.

Assay protocol: In vivo pharmacokinetics in rats, intravenous injection and oral administration
Design: species or system Sprague Dawley rats
Conditions used: rat, oral administration 1 mg/kg
Assay endpoint: F (%)

1) O=C(O)CCc1[nH]c2ccc(OCc3ccc(C4CCCC4)c(C(F)(F)F)c3)cc2c1Cl : 17.4

[a] Cc1c(CCC(=O)O)[nH]c2ccc(OCc3ccc(C4CCCC4)c(C(F)(F)F)c3)cc12
[b] O=C(O)CCc1[nH]c2ccc(OCc3ccc(C4CCCC4)c(C(F)(F)F)c3)cc2c1F
[c] O=C(O)C[C@H]1CCc2c1[nH]c1ccc(OCc3ccc(C4CCCC4)c(C(F)(F)F)c3)cc21 [APD334, reference compound]
Put these in order: smallest F first, largest last. Write the labels in rank order as requested.
a, b, c
